Target: Prostaglandin G/H synthase 1 (Ovis aries, UniProt P05979)
Sequence (P05979 whole entry): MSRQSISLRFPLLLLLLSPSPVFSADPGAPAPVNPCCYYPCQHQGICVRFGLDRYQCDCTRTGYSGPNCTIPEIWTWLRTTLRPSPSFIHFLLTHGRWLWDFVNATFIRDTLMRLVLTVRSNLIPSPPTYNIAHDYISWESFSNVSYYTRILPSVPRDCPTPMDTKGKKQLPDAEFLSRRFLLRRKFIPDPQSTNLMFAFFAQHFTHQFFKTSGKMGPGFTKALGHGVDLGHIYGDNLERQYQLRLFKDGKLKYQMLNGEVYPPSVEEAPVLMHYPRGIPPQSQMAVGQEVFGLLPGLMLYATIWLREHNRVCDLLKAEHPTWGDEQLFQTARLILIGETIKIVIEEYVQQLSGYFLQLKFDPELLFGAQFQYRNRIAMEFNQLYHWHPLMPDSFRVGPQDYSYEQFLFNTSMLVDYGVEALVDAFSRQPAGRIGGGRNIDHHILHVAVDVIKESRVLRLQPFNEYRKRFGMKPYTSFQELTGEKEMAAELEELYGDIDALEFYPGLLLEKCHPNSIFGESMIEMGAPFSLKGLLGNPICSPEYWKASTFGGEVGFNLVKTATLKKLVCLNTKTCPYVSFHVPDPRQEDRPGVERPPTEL
measuredQuantity: IC50

{"molecule": "C/C=C(\\C)C(=O)O[C@@H]1[C@@H](C)[C@@]2(O)[C@@H](C=C(CO)C[C@]3(O)C(=O)C(C)=C[C@@H]23)[C@@H]2C(C)(C)[C@]12OC(=O)C(C)CC (stereo partly drawn)", "measuredQuantity": "IC50", "measuredValue": "> 50 µM"}
{"molecule": "CCC(C)C(=O)O[C@@]12[C@H](OC(C)=O)[C@@H](C)[C@@]3(O)[C@@H](C(=O)C(CO)=C[C@]4(O)C(=O)C(C)=C[C@@H]34)[C@@H]1C2(C)C (stereo partly drawn)", "measuredQuantity": "IC50", "measuredValue": "> 50 µM"}
{"molecule": "CCC(C)C(=O)O[C@@]12[C@H](OC(=O)c3ccccc3)[C@@H](C)[C@@]3(O)[C@@H](C=C(CO)C[C@]4(O)C(=O)C(C)=C[C@@H]34)[C@@H]1C2(C)C (stereo partly drawn)", "measuredQuantity": "IC50", "measuredValue": "0.14 µM"}

* * *

test system: A549; test: Cytotoxicity against human A549 cells assessed as cell viability after 72 hrs by CCK8 assay; format: functional, cell-based; settings: A549, 72 h
Each entry below carries its reported IC50.

{"compound": "CCC(C)C(=O)O[C@@]12[C@H](OC(C)=O)[C@@H](C)[C@@]3(O)[C@@H](C(=O)C(CO)=C[C@]4(O)C(=O)C(C)=C[C@@H]34)[C@@H]1C2(C)C (stereo partly specified)", "IC50": "> 50 µM"}
{"compound": "C/C=C(\\C)C(=O)O[C@@H]1[C@@H](C)[C@@]2(O)[C@@H](C(=O)C(CO)=C[C@]3(O)C(=O)C(C)=C[C@@H]23)[C@@H]2C(C)(C)[C@]12OC(=O)C(C)CC (stereo partly specified)", "IC50": "19 µM"}
{"compound": "C/C=C(\\C)C(=O)O[C@@H]1[C@@H](C)[C@@]2(O)[C@@H](C=C(CO)C[C@]3(O)C(=O)C(C)=C[C@@H]23)[C@@H]2C(C)(C)[C@]12OC(=O)C(C)C", "IC50": "32 µM"}
{"compound": "CCC(C)C(=O)O[C@@]12[C@H](O)[C@@H](C)[C@]3(O)[C@@H]4C=C(C)C(=O)[C@@H]4CC(CO)=C[C@H]3[C@@H]1C2(C)C (stereo partly specified)", "IC50": "4.5 µM"}
{"compound": "CC(=O)O[C@@H]1[C@@H](C)[C@@]2(O)[C@@H](C=C(CO)C[C@]3(O)C(=O)C(C)=C[C@@H]23)[C@@H]2C(C)(C)[C@]12OC(=O)C(C)C", "IC50": "5.8 µM"}
{"compound": "CCC(C)C(=O)O[C@@]12[C@H](OC(=O)c3ccccc3)[C@@H](C)[C@@]3(O)[C@@H](C=C(CO)C[C@]4(O)C(=O)C(C)=C[C@@H]34)[C@@H]1C2(C)C (stereo partly specified)", "IC50": "6.9 µM"}
